Target: T1, recombinant cyno ENTPD2 extracellular domain (residues 29-462) with C-terminal Avi-His6 tag (cynomolgus macaque, UniProt Q9Y5L3 29-462 (human entry))
T1 construct: also called cynomologus (cyno) ENTPD2 ECD
T1 chain (part 1 of 2): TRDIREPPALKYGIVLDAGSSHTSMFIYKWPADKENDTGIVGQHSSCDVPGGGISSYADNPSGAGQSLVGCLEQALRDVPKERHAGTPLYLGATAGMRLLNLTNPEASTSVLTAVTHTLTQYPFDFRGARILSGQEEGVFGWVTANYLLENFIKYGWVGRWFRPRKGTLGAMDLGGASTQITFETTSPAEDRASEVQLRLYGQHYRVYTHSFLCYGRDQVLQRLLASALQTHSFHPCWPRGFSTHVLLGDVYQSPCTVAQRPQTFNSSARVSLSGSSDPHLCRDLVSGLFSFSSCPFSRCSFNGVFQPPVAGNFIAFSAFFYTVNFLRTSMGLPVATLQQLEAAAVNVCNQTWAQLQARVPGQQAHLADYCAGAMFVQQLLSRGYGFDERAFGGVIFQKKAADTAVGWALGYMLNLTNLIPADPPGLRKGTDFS
T1 chain (part 2 of 2): HHHHHH
Experiment: SPR Biacore, mAb captured, ECD analyte, 25C
A collection of binders and their measured Kd

# binder, Kd (nM)
measured = [
    ("ANTI-HUMAN ENTPD2 MAB8 (antibody, human IgG1, lambda, V domains shown, also called Anti-ENTPD2 mAb8) VH: QVQLQQSGPGLVKPSQTLSLTCAISGDSVSSSSAAWNWIRQSPSRGLEWLGRIYYRSKWYNDYAVSVKSRITINPDTSKNQFSLQLNSVTPEDTAVYYCARGSYVTSSYEGFDYWGQGTLVTVSS VL: SYELTQPLSVSVALGQTARITCSGDNLPEKYAYWYQQKPGQAPVLVIYDDNKRPSGIPERFSGSNSGNTATLTISRAQAGDEADYYCQSYGKWGWTWVFGGGTKLTVLG", 81.1),
    ("ANTI-HUMAN ENTPD2 MAB4 (antibody, human IgG1, kappa, V domains shown, humanized and optimized from mAb16; human IgG1, kappa; also called Anti-ENTPD2 mAb4) VH: QIQLQESGPGLVKPSQTLSLTCTVSGYSITSGYYWNWIRQHPGKGLEWIGYISYDADNNYNPSLKNRVTISRDTSKNQFSLKLSSVTAADTAVYYCAGGYYRYGLGSYRGSYYYVMDYWGQGTTVTVSS VL: ETVLTQSPATLSVSPGERATISCKASQSVDYEGHSYMNWYQQKPGQAPRLLIYAASNLESGIPARFSGSGSGTDFTLTISSVEPEDAATYYCQQSNEDPPTFGGGTKLEIKR", 42.1),
]

Provenance of the data: patent US20220348651A1
